UniProt P28482 pIC50 data
Sequence (P28482 whole entry): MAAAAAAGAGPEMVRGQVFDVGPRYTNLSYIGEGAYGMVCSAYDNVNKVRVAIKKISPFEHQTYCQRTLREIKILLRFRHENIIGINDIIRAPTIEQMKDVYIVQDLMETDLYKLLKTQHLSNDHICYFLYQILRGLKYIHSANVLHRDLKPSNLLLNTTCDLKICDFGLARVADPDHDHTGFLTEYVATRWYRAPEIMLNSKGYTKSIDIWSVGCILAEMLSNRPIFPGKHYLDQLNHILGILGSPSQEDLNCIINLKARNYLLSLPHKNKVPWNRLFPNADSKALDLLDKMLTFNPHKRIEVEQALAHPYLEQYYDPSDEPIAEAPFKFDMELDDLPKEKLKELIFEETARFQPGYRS
Remember the convention: pIC50 equals -log10 of concentration in molar.

Molecule | pIC50
CCNc1n[nH]c2cc3c(cc12)CN([C@H](C)c1ccccc1)C(=O)N3 [Example 29] | 7.66
Cc1cc(-c2n[nH]c3cc4c(cc23)CCC(=O)N4O)ccn1 [Example 8] | 8.44
C[C@H](c1ccccc1)N1Cc2cc3cn[nH]c3cc2NC1=O [Example 31] | 7.26

**Query** Entry under review: C[C@H](c1ccccc1)N1Cc2cc3c(-c4ccc5nnn(C)c5c4)n[nH]c3cc2NC1=O [Example 26] . Reported pIC50?
**Result** 9.52
